assay-remarks: in vivo
test-context: female, ICR, mouse, ip, 200 mg/kg
quantity-name: Cmax (ng/mL)
Supply the numeric figure in ng/mL, leaving out any unit text.

Tell me its Cmax given CCCCCCc1ccc(Oc2ccccc2)c(O)c1 [PT04, 5-hexyl-2-phenoxyphenol, reference compound] as the entry.
5100

====

Tested on: Bt38
assay-remarks: microbe, parasite or virus in culture
Assay type: cell-based
test-context: Burkholderia pseudomallei, read-out: Burkholderia pseudomallei MIC (μg/mL) Bt38
Decision: MIC beneath 200 µg/mL gives 1.0; MIC meeting or exceeding 200 µg/mL gives 0.0.

| structure-notation | measurement-target | classification |
| --- | --- | --- |
| CCCCCCc1ccn(Cc2cccc([N+](=O)[O-])c2C)c(=O)c1 | Bt38 | 0.0 |

Is it true that MIC reported for CCCCCCc1ccn(Cc2cccc(N)c2C)c(=O)c1 is less than 200 µg/mL?
1.0

State whether 200 µg/mL exceeds MIC recorded for CCCCCCc1ccn(Cc2ccccc2C#N)c(=O)c1 .
1.0

Please check: MIC for CCCCCCc1ccn(Cc2cccnc2F)c(=O)c1 , strictly under 200 µg/mL or not?
1.0

Quick check: does CCCCCCc1ccn(Cc2ccccc2C)c(=O)c1 have MIC under 200 µg/mL?
1.0

Does CCCCCCc1ccn(Cc2ccccc2Cl)c(=O)c1 have MIC strictly under 200 µg/mL?
0.0

State whether 200 µg/mL exceeds MIC recorded for CCCCCCc1ccc(Oc2ccccc2C)c(=O)[nH]1 .
1.0
